Reported Kp values follow for various compounds
Test: Lymphatic transport studies in anesthetized mesenteric lymph duct cannulated rats
Settings: rat, in vivo, Lymph/serum AUC ratio, nanoemulsion, intraduodenal, lymph duct-cannulated rats; mean ± SD
Give the figure only, with no unit attached.

Examples from the recorded data:
Compound	Kp
C=C(C)[C@@H]1CCC(C)=C[C@H]1c1c(O)cc(CCCCC)cc1O	100
CCCCCc1cc(O)c2c(c1)OC(C)(CCC=C(C)C)C=C2 (stereo not drawn)	530

// moving on: another record for Kp
## Input Please report Kp for the following compound: `CCCCCc1cc(O)c2c(c1)OC(C)(C)c1ccc(C)cc1-2`
## Output 274

* * *

Assay: Pharmacokinetic studies (oral and intravenous dosing) in jugular vein cannulated rats
Conditions: rat, in vivo, iv, 1.5 mg, AUC0-inf, nanoemulsion, rats; serum, dose-normalized to 1 mg/kg; mean ± SD
Measure Name: AUC(0-inf) (ng·h/mL)
Quick note: give the figure in ng·h/mL, leave out the unit.

Compound	AUC(0-inf), ng·h/mL
CCCCCc1cc(O)c2c(c1)OC(C)(CCC=C(C)C)C=C2 (centres unmarked) [CBC, cannabichromene]	640

// moving on: another record for AUC(0-inf)
## Input Please report AUC(0-inf) for the following compound: CCCCCc1cc(O)c2c(c1)OC(C)(C)c1ccc(C)cc1-2 [CBN, cannabinol]
## Output 1040

* * *

Experiment: Log P measurement, octanol–water system
Assay type: physicochemical
Settings: octanol–water, from measured aqueous phase concentration; lower bounds based on LOQ; n = 5; read-out: Log P
Measure Name: logP

Examples from the recorded data:
Molecule	Measure Name	Meas Value
C=C(C)[C@@H]1CCC(C)=C[C@H]1c1c(O)cc(CCCCC)cc1O [CBD, cannabidiol]	logP	> 6.3
CCCCCc1cc(O)c2c(c1)OC(C)(C)c1ccc(C)cc1-2 [CBN, cannabinol]	logP	6.2

// moving on: another record for logP
## Input Please report logP for the following molecule: CCCCCc1cc(O)c2c(c1)OC(C)(CCC=C(C)C)C=C2 (stereo not drawn) [CBC, cannabichromene]
## Output > 6.7

* * *

Assay: Pharmacokinetic studies (oral and intravenous dosing) in jugular vein cannulated rats
Conditions: rat, in vivo, po, F0-inf (absolute oral bioavailability), nanoemulsion, rats; mean ± SD
Measure Name: bioavailability (%)
Quick note: give the figure in %, leave out the unit.

Examples from the recorded data:
Molecule	Measure Name	Meas Value
CCCCCc1cc(O)c2c(c1)OC(C)(C)c1ccc(C)cc1-2	bioavailability	9
CCCCCc1cc(O)c2c(c1)OC(C)(CCC=C(C)C)C=C2 (stereo not drawn)	bioavailability	18

// moving on: another record for bioavailability
## Input Please report bioavailability for the following molecule: `C=C(C)[C@@H]1CCC(C)=C[C@H]1c1c(O)cc(CCCCC)cc1O`
## Output 45

* * *

Assay: Pharmacokinetic studies (oral and intravenous dosing) in jugular vein cannulated rats
Details: rat, in vivo, po, Cmax, oil solution, rats; 10 mg CBD, 15 mg other cannabinoids; serum, dose-normalized to 1 mg/kg; mean ± SD
Measure Name: Cmax (ng/mL)
Quick note: give the figure in ng/mL, leave out the unit.

Molecule	Unit Name	Meas Value
CCCCCc1cc(O)c2c(c1)OC(C)(C)c1ccc(C)cc1-2	ng/mL	15.3

## Input Please report Cmax for the following molecule: CCCCCc1cc(O)c2c(c1)OC(C)(CCC=C(C)C)C=C2 (stereo not drawn)
## Output 2.6

## Input Please report Cmax for the following molecule: `C=C(C)[C@@H]1CCC(C)=C[C@H]1c1c(O)cc(CCCCC)cc1O`
## Output 27
